system: phosphorylation of Chk1 (Ser 345) in HT29 colon adenocarcinoma cells; assay: pCHK1 cellular assay; format: cell-based; conditions: Homo sapiens, HT-29, hydroxyurea 3 mM, 4 h
Metric name: IC50

| Compound | Test system | IC50 |
| --- | --- | --- |
| COCc1ccc(-c2cc(N3CCOC[C@H]3C)nc3c(-c4cc[nH]n4)nn(C)c23)cc1 | phosphorylation of Chk1 (Ser 345) in HT29 colon adenocarcinoma cells | 100 to 1000 nM |
| C[C@@H]1COCCN1c1cc(-c2ccccn2)c2[nH]nc(-c3cc[nH]n3)c2n1 | phosphorylation of Chk1 (Ser 345) in HT29 colon adenocarcinoma cells | 100 to 1000 nM |
| C[C@@H]1COCCN1c1cc(C2(S(C)(=O)=O)CC2)c2c(n1)c(-c1cc[nH]n1)nn2C | phosphorylation of Chk1 (Ser 345) in HT29 colon adenocarcinoma cells | 10 to 100 nM |
| Cc1cnccc1-c1cc(N2CCOC[C@H]2C)nc2c(-c3cc[nH]n3)nn(C)c12 | phosphorylation of Chk1 (Ser 345) in HT29 colon adenocarcinoma cells | 10 to 100 nM |
| C[C@@H]1COCCN1c1cc(-c2ccncc2F)c2c(n1)c(-c1cc[nH]n1)nn2C | phosphorylation of Chk1 (Ser 345) in HT29 colon adenocarcinoma cells | 10 to 100 nM |

Complete the entry with IC50 for C[C@@H]1COCCN1c1cc(C(N)=O)c2[nH]nc(-c3cc[nH]n3)c2n1
1000 to 10000 nM

Complete the entry with IC50 for C[C@@H]1COCCN1c1cc(C2=CC[S+]([O-])CC2)c2c(n1)c(-c1ccn[nH]1)nn2C (some centres unmarked)
100 to 1000 nM

Complete the entry with IC50 for Cc1ccc(-c2cc(N3CCOC[C@H]3C)nc3c(-c4cc[nH]n4)nn(C)c23)cn1
10 to 100 nM

====

target: ATR/ATRIP (Homo sapiens (Human)); experiment: ATR/ATRIP kinase assay (TR-FRET, p53 Ser15 phosphorylation); settings: 0.5 μM ATP, 50 nM p53
Sequence (Q13535 whole entry): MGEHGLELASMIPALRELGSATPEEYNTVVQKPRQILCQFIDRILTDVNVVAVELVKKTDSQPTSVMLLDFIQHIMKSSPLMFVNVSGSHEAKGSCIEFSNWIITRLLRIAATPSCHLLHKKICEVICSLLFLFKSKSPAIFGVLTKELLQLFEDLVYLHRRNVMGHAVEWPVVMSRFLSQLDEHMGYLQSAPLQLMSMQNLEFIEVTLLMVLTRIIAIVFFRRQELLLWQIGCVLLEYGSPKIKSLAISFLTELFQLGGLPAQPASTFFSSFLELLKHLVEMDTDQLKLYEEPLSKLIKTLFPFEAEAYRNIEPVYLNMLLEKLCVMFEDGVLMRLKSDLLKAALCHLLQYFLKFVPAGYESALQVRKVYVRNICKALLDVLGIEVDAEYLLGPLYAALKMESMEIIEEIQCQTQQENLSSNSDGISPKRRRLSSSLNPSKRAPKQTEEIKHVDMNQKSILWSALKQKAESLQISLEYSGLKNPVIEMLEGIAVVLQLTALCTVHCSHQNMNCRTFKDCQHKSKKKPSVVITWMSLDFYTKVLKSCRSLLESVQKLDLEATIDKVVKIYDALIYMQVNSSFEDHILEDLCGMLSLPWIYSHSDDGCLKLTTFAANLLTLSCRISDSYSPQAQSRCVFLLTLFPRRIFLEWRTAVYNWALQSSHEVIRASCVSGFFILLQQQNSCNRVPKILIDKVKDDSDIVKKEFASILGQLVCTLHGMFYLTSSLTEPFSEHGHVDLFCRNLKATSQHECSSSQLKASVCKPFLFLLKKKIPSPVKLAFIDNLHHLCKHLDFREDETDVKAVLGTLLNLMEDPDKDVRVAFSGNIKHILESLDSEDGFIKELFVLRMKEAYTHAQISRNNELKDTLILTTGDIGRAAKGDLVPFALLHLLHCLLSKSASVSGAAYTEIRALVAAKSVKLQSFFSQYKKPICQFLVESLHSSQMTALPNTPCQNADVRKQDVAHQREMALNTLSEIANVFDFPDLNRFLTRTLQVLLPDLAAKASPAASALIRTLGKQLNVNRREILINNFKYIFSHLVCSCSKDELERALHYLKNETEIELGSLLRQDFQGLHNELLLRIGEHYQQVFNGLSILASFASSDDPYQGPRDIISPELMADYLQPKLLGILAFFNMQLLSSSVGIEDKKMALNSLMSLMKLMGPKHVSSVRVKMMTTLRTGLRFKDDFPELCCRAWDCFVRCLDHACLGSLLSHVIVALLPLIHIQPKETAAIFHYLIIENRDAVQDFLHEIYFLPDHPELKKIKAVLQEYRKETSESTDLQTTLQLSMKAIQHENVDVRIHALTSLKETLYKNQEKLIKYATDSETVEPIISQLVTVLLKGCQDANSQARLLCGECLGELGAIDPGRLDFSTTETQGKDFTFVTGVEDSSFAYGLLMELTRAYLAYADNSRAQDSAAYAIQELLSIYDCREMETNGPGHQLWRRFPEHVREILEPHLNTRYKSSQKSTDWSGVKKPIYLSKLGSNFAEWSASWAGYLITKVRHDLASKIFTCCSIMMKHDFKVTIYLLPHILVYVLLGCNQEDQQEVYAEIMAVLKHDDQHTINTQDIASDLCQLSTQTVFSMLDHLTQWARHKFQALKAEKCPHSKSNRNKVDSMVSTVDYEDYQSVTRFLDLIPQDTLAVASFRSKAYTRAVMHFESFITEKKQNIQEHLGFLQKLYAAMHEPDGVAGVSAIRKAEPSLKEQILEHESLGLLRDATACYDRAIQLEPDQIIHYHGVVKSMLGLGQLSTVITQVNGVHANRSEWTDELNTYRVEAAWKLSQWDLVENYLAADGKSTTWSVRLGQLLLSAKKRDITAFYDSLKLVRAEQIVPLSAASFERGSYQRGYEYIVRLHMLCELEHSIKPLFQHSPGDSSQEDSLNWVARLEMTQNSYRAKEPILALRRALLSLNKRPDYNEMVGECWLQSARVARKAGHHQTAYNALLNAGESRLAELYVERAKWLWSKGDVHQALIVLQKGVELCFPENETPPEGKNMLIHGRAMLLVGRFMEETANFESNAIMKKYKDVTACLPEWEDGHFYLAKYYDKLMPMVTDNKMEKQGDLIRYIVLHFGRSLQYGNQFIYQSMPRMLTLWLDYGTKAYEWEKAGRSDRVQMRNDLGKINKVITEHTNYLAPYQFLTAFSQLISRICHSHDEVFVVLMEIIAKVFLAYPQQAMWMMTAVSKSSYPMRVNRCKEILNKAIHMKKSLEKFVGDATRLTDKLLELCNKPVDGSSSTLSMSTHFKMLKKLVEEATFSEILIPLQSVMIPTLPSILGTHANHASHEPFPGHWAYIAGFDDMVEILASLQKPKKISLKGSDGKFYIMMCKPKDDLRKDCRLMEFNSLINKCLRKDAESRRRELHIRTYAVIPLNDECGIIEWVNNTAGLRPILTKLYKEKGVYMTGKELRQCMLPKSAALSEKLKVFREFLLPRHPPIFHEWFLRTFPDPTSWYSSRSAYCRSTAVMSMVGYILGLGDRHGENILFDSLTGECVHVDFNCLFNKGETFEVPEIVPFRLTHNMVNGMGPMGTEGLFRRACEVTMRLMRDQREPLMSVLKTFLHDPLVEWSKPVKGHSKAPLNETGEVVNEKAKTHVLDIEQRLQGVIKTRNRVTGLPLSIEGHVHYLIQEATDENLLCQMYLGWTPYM
Sequence (Q8WXE1 whole entry partner): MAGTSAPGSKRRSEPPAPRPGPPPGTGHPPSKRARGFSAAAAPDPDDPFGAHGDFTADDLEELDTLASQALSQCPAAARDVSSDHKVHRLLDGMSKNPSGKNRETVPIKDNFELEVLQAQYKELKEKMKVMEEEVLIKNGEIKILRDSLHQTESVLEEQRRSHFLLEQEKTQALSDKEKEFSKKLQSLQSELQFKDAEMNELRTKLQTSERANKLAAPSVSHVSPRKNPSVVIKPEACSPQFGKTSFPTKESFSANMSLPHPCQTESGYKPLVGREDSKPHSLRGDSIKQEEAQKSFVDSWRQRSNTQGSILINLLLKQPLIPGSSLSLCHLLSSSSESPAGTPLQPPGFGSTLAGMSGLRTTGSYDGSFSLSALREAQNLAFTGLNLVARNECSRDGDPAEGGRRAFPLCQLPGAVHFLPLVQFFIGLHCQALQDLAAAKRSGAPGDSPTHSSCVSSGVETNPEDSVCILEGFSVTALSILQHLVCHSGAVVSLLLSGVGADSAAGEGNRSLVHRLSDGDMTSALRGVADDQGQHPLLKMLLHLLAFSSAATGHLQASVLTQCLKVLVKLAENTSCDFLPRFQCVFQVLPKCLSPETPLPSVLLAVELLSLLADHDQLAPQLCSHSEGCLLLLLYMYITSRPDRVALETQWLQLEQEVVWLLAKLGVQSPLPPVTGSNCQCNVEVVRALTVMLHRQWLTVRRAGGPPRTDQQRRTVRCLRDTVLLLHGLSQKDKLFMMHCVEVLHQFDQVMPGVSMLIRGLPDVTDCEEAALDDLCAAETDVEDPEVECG
Metric name: pIC50
In simple prose, pIC50 is minus the logarithm base ten of a concentration in moles per litre.

Name the value of pIC50 reported for C[C@@H]1COCCN1c1cc(-c2ccccn2)c2[nH]nc(-c3cc[nH]n3)c2n1 when tested on ATR/ATRIP (Homo sapiens (Human)).
8.37

Name the value of pIC50 reported for C[C@@H]1COCCN1c1cc(-c2ccc(S(C)(=N)=O)cc2)c2c(n1)c(-c1cc[nH]n1)nn2C (stereo partly shown) when tested on ATR/ATRIP (Homo sapiens (Human)).
8.05

Name the value of pIC50 reported for Cc1nc([S+](C)[O-])ccc1-c1cc(N2CCOC[C@H]2C)nc2c(-c3cc[nH]n3)nn(C)c12 (stereo partly shown) when tested on ATR/ATRIP (Homo sapiens (Human)).
8.68

Name the value of pIC50 reported for C[C@@H]1COCCN1c1cc(C2CCOCC2)c2c(n1)c(-c1ccn[nH]1)nn2C when tested on ATR/ATRIP (Homo sapiens (Human)).
9.15

====

Form field: pIC50 (one value per entry).
system: phosphorylation of Chk1 (Ser 345) in HT29 colon adenocarcinoma cells; assay: pCHK1 cellular assay; format: cell-based; settings: Homo sapiens, HT-29, hydroxyurea 3 mM, 4 h
pIC50: −log10 of the molar value.

Worked cases, pIC50 given:
| Compound | pIC50 |
| --- | --- |
| C[C@@H]1COCCN1c1cc(-c2ccnn2C(F)F)c2c(n1)c(-c1ccn[nH]1)nn2C [Compound 78] | 7.00 to 8.00 |
| C[C@@H]1COCCN1c1cc(CO)c2c(n1)c(-c1cc[nH]n1)nn2C [Compound 24] | 6.00 to 7.00 |

Complete the entry with pIC50 for C[C@@H]1COCCN1c1cc(-c2ccc(CO)cc2)c2c(n1)c(-c1cc[nH]n1)nn2C [Compound 52]
7.00 to 8.00

Complete the entry with pIC50 for C[C@@H]1COCCN1c1ccc2c(n1)c(-c1cc[nH]n1)nn2CC(C)(C)O [Compound 85]
5.00 to 6.00
